Give measured Stability for each item. Keep answers brief.
Tested on: Candida albicans
Assay: Prodrug stability in fluconazole sensitive Candida albicans isolate Gu4 assessed as compound cleavage rate measured per mg of protein
Assay type: ADME, organism-based
Conditions: in vivo
Residues, ends and D or L forms follow the SMILES beside them. *: point of attachment. Ethyl(2-NH2) = NCC*
Numbers only, in nmol/min.

A selection of reference data follows.
compound: C[C@@H]([C@H](N)C(=O)N[C@H](C(=O)O)[C@H]1O[C@@H](n2ccc(=O)[nH]c2=O)[C@H](O)[C@@H]1O)[C@H](O)c1ccc(O)cn1
Stability [nmol/min]: 0.3

compound: CC(C)C[C@H](NC(=O)[C@H](CC(C)C)NC(=O)[C@H](CC(C)C)NC(=O)[C@@H](N)COCCN)C(=O)NCC(=O)O (H-S(Ethyl(2-NH2))LLLG-OH)
Stability [nmol/min]: 20

Okay, next one:
q: # get_value(readout='Stability', item= CC(C)C[C@H](NC(=O)[C@H](CC(C)C)NC(=O)[C@@H](N)COCCN)C(=O)NCC(=O)O (H-S(Ethyl(2-NH2))LLG-OH) )
a: 20
